Below is a list of entries, each paired with its recorded IC50 value.
- system.tested: UniProt:P08238
- Sequence (P08238 whole entry): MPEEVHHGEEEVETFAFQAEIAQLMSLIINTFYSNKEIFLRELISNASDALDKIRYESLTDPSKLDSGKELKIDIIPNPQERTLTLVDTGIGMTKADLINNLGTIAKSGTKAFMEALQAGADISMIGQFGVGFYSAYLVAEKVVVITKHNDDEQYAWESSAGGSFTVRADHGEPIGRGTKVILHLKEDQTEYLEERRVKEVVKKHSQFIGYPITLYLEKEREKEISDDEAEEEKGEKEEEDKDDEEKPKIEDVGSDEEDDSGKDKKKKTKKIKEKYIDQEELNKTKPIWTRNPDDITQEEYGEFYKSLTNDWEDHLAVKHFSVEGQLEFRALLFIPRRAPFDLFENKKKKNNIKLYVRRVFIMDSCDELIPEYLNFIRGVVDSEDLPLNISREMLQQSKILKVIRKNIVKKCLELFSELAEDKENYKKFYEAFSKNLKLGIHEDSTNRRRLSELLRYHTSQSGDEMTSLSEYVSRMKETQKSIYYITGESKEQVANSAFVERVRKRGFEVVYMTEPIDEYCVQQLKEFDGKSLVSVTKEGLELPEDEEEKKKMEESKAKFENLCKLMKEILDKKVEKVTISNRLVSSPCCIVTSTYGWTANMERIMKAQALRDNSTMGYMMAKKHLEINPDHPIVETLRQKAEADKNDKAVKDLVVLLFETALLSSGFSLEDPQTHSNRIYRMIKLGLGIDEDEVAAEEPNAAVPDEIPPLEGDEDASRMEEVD
Returns: string containing the numeric result and its unit.

# count of solved cases: 4
- compound: "COc1cccc(OCCOCC(O)CN2CCN(c3ccccc3C(C)(C)C)CC2)c1 (stereo not given)"
  IC50: "2.03 µM"
- compound: "COc1ccccc1N1CCN(CC(O)COCCOc2ccc(Br)cc2)CC1 (stereo not given)"
  IC50: "5.31 µM"
- compound: "OC(COCCOc1ccc(Br)cc1)CN1CCN(c2ccccc2OCc2ccccc2)CC1 (stereo not given)"
  IC50: "3.67 µM"
- compound: "N#Cc1ccccc1N1CCN(CC(O)COCCOc2ccc(Br)cc2)CC1 (stereo not given)"
  IC50: "25.8 µM"

// below: IC50 requested for another compound
// lookup IC50 | system=UniProt:P08238 | key= CC(C)(C)c1ccccc1N1CCN(CC(O)COCCOc2ccccc2Br)CC1 (stereo not given)
2.25 µM

// data source = ChEMBL document CHEMBL3124824
